Cited source for all entries: the FLAb antibody collection (doi:10.7554/elife.23156)

B1: scFv; the commonest letter at each place (parent)
chain 1: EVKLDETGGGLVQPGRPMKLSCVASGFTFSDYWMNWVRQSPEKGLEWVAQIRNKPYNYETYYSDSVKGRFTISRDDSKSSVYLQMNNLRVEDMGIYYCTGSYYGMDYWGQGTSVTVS
chain 2: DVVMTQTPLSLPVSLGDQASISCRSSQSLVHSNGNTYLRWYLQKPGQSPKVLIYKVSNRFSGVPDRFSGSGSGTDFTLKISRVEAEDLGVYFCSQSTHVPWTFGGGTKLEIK

variants of: B1; experiment: yeast surface expression (ratio to wild type); higher = more expressed; settings: format: scFv 4-4-20, heavy + light
value type: yeast surface expression

Some entries whose results are on file:
mutation code	yeast surface expression
chain 1 W33R N35Y	0.794
chain 1 T28Y M34L N35C	0.495
chain 1 Y32S W33F	0.984
chain 1 G100W S101P D106M	0.186
chain 1 F29D W36H	0.505
chain 1 W108K	0.504
chain 1 G100A S101F	0.652
chain 1 G104I W108D	0.236

Your task in this section: give yeast surface expression for each listed record.
1. chain 1 Y32A M34E V37C
2. chain 1 S30Q Y32V

Output:
[0.299, 0.923]

Your task in this section: give yeast surface expression for each listed record.
1. chain 1 T28F S30T
2. chain 1 M34Q W36E

Output:
1. 0.857
2. 2.19

Your task in this section: give yeast surface expression for each listed record.
1. chain 1 W108E G109V
2. chain 1 S30P W33Q W36F
3. chain 1 M34Q
4. chain 1 S30Y N35C
5. chain 1 Y107T
6. chain 1 G100Y D106I
7. chain 1 Y102E D106S

Output:
1. 0.33
2. 0.838
3. 0.801
4. 0.686
5. 0.965
6. 0.398
7. 1.01

Your task in this section: give yeast surface expression for each listed record.
1. chain 1 F29N V37D
2. chain 1 G100S Y107D
3. chain 1 D106E W108I
4. chain 1 S30F M34E
5. chain 1 S101I W108E
6. chain 1 S101L Y103I
7. chain 1 W108P G109A
8. chain 1 S101W M105Q

Output:
1: 0.229; 2: 0.543; 3: 0.866; 4: 0.0981; 5: 0.21; 6: 0.229; 7: 0.41; 8: 0.517

Your task in this section: give yeast surface expression for each listed record.
1. chain 1 W108G G109V
2. chain 1 Y103S D106K

Output:
1: 0.228; 2: 0.311

Your task in this section: give yeast surface expression for each listed record.
1. chain 1 S101I Y102W
2. chain 1 D106W W108K
3. chain 1 W33K M34T
4. chain 1 G104L M105L
5. chain 1 D31S M34C N35Y
6. chain 1 M105N D106P
7. chain 1 D31T W33F

Output:
0.303
0.243
0.893
0.303
0.927
0.2
0.629

Your task in this section: give yeast surface expression for each listed record.
1. chain 1 G104I Y107D
2. chain 1 Y103N G104Q
3. chain 1 Y102C W108I
4. chain 1 S101N Y107M
5. chain 1 Y103A W108D
6. chain 1 G100C W108L

Output:
0.2
0.766
0.7
0.616
0.576
0.653

Your task in this section: give yeast surface expression for each listed record.
1. chain 1 G100R S101H
2. chain 1 F29T
3. chain 1 S30K N35I
4. chain 1 Y32Q M34I
5. chain 1 F29N S30P M34H
6. chain 1 D31G Y32L
7. chain 1 T28R S30F

Output:
1: 0.282; 2: 0.981; 3: 0.879; 4: 0.765; 5: 0.781; 6: 0.645; 7: 0.739
